B1: TPR t1 (parent)
chain: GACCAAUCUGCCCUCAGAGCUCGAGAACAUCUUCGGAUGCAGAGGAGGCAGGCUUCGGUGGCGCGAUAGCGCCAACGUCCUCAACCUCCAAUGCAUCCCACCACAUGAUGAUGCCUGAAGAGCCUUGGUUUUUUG

Variants of: B1
Test: polymerase ribozyme fitness, log enrichment relative to wild type (log ratio); higher = more active; in vitro selection for triplet polymerase activity
Assign True whenever polymerase ribozyme fitness (log ratio) does not fall below -1; assign False whenever it does.

Example cases with answers are listed next.
{"columns": ["SEQ STRING", "CLASS ASSIGNMENT"],
 "data": [
  ["GACCAAUCUGCCCUCAGUGUUCGAGAACAUCUUCGGAUGCAGAGGAGGCAGGCUUCGGUGGCGCGAUAGCGCCAACGUCCUCAACCGCCAAUGCAUCCCACCACAUGAUGAUGCCUGAAGAGCCUUGGUUUUUUG [A18U C20U U87G]", "False"],
  ["GACCAAUUUGCCCUCAGAGCUCGAGAAGAUCUUCGGAUGCAGAGGAGGCAGGCUUCGGUGGCGCGAUAGCGCCAACGUCCUCAACCUCCAAUGCAUCCCACCACAUGAUGAUGCCUGAAGAGCCUUGGUUUUUUG [C8U C28G]", "False"],
  ["GACCAAUCUGCCCUCAGAGCUCGAGAACAUCUUCGGAUGCAGAGGAAGCAGGCUUCGGUGACGCGAUAGCGCCAACGUCCUCAACCUCCAAUGCAUCCCACCACAUGAUGAUGCCAGAAGAGCCUUGGAUUUUUG [G47A G61A U116A U129A]", "False"],
  ["GACCAAUCUGCCCUCAGAGCUCGAGAAGAUCUUCGGAUGCAGAGGAGGCAGGCUUCGGUGGCGCGAUAGCGCCAACGUCCUCAACCUCCAAGGCAUCCCACCACAUGAUGAUGCCUAAAGGGCCUUGGUUUUUUG [C28G U92G G117A A121G]", "False"],
  ["GACCAAUCUGCCCUCAGAGCUCGAGAACAUCUUCGGAUGCAUAGGAGGCAGGCUUCGGUGGCGCGAUAGCGCUAACGUCCUCAACCUCCAAUGCAUCCCACCACAUGAUGAUGCCUAAAGAGCCUUGGUUUUUUG [G42U C73U G117A]", "False"]
]}

## Input Tell me whether polymerase ribozyme fitness (log ratio) is at least -1 here: GACCAAUCUGCCCUCAGAGCUCGAGAACAUCUGCGGAUGCAGAGGAUGCAGGCUUCGGUGGCGCGAUAGCGUCAACGUCCUCAACCUCCAAUGCAUCCCACCACAUGAUGAUGCCUGAAAAGCCUUGGUUUUUUG [U33G G47U C72U G120A]
## Output False
